Values from ChEMBL document CHEMBL3259576

Organism: Mus musculus
Protocol details: Stimulation of mouse CD1d-mediated IL-4 production in mouse splenocytes measured at 32 ng/ml after 72 hrs by ELISA
Type: cell-based
Activity calls are given as the source filed them. The calls are words filed in the database; no cut-off is given here.
Endpoint name: Activity

{"columns": ["Chemical smiles", "Activity"],
 "data": [
  ["CCCCCCCCCCCCCC[C@@H](O)[C@@H](O)[C@H](CO[C@H]1O[C@H](CO)[C@H](O)[C@H](O)[C@H]1O)NC(=O)CCCCCCCCCCO", "Active"],
  ["CCCCCCCCCCCCCC[C@@H](O)[C@@H](O)[C@H](CO[C@H]1O[C@H](CO)[C@H](O)[C@H](O)[C@H]1O)NC(=O)CCCCCCCCCCCO", "Active"],
  ["CCCCCCCCCCCCCCCCCCCCCCCCCC(=O)N[C@@H](CO[C@H]1O[C@H](CO)[C@H](O)[C@H](O)[C@H]1O)[C@H](O)[C@H](O)CCCCCCCCCCCCCC", "Active"],
  ["CCCCCCCCCCCCCC[C@@H](O)[C@@H](O)[C@H](CO[C@H]1O[C@H](CO)[C@H](O)[C@H](O)[C@H]1O)NC(=O)CCCCCCCCCCCCCCCO", "Active"],
  ["CCCCCCCCCCCCCC[C@@H](O)[C@@H](O)[C@H](CO[C@H]1O[C@H](CO)[C@H](O)[C@H](O)[C@H]1O)NC(=O)CCCCCCCCCC", "Active"]
]}

# context switch: different compound, same Activity
Input CCCCCCCCCCCCCC[C@@H](O)[C@@H](O)[C@H](CO[C@H]1O[C@H](CO)[C@H](O)[C@H](O)[C@H]1O)NC(=O)CCCCCCCCCCC . Output Activity: Active
